Recorded melting point, one value per entry.

Example results:
# molecule, melting point
data = [
    ("O=c1c2c3c(sc2nc2[nH]c(-c4c5ccccc5cc5ccccc45)nn12)CCC3 [Compound 10e]", "101 to 103 °C"),
    ("COc1ccc(-c2nn3c(=O)c4c5c(sc4nc3n2[C@@H]2O[C@H](COC(C)=O)[C@@H](OC(C)=O)[C@H](OC(C)=O)[C@H]2OC(C)=O)CCC5)cc1", "> 300 °C"),
    ("Cc1nn2c(=O)c3c4c(sc3nc2[nH]1)CCC4", "93 to 95 °C"),
]

Input line: Look up melting point for this molecule: `O=c1c2c3c(sc2nc2[nH]cnn12)CCC3`
Output line: > 300 °C

Input line: Next entry: COc1ccc(-c2nn3c(=O)c4c5c(sc4nc3[nH]2)CCC5)cc1 [Compound 10d]
Output line: 180 to 182 °C

Input line: Okay, and O=c1c2c3c(sc2nc2nc([C@H](O)[C@@H](O)[C@@H](O)[C@H](O)CO)[nH]n12)CCC3 [Compound 11b] ?
Output line: > 300 °C

Input line: `CC(=O)OC[C@H]1O[C@@H](n2cnn3c(=O)c4c5c(sc4nc23)CCC5)[C@H](OC(C)=O)[C@@H](OC(C)=O)[C@@H]1OC(C)=O` , same question.
Output line: > 300 °C

Input line: What about this molecule? `O=c1c2c3c(sc2nc2[nH]c(=S)[nH]n12)CCC3`
Output line: > 300 °C

Input line: Now try O=c1c2c3c(sc2nc2nc([C@@H](O)[C@H](O)[C@H](O)CO)[nH]n12)CCC3 [Compound 11d] .
Output line: > 300 °C

Input line: # iterate: `N#CCc1nn2c(=O)c3c4c(sc3nc2[nH]1)CCC4`
Output line: > 300 °C

====

- System: human prostate PC-3 cancer cell line
- assay info: In vitro cytotoxic screening (MTT assay), PC-3
- Type: cell-based
- condition set: 50 µM; average ± standard deviation
Item-by-item account of Percentage cytotoxicity on PC-3
// units = %; emit number, no label

Input line: Requested read-out: Percentage cytotoxicity on PC-3. Entry: CC(=O)OC[C@@H](OC(C)=O)[C@H](OC(C)=O)[C@H](OC(C)=O)[C@@H](OC(C)=O)c1nc2nc3sc4c(c3c(=O)n2[nH]1)CCC4 [Compound 12b]
Output line: 7.3

Input line: // query: O=c1c2c3c(sc2nc2[nH]c(-c4ccc(Br)cc4)nn12)CCC3 [Compound 10b]
Output line: 22.1

Input line: Next entry: O=c1c2c3c(sc2nc2nc([C@@H](O)[C@H](O)[C@H](O)CO)[nH]n12)CCC3 [Compound 11d]
Output line: 9.7

====

- Tested on: human colorectal HCT-116 cancer cell line
- assay info: In vitro cytotoxic screening (MTT assay), HCT-116
- Format: cell-based
- condition set: 100 µM; average ± standard deviation
Each entry below carries its recorded Percentage cytotoxicity on HCT-116.
Respond numerically; units are % and should not be typed.

Below, each entry is followed by its recorded Percentage cytotoxicity on HCT-116 result.
# compound, Percentage cytotoxicity on HCT-116, %
records = [
    ("O=c1c2c3c(sc2nc2[nH]cnn12)CCC3", 9.1),
    ("O=c1c2c3c(sc2nc2[nH]c(-c4ccc([N+](=O)[O-])cc4)nn12)CCC3 [Compound 10c]", 40.4),
    ("CC(=O)OC[C@@H](OC(C)=O)[C@@H](OC(C)=O)[C@H](OC(C)=O)c1nc2nc3sc4c(c3c(=O)n2[nH]1)CCC4 [Compound 12d]", 9.5),
    ("O=c1c2c3c(sc2nc2nc([C@H](O)[C@@H](O)[C@H](O)[C@H](O)CO)[nH]n12)CCC3 [Compound 11a]", 32.4),
]

Input line: I would be grateful if you could share the reported Percentage cytotoxicity on HCT-116 for O=c1c2c3c(sc2nc2nc([C@H](O)[C@@H](O)[C@@H](O)[C@H](O)CO)[nH]n12)CCC3 [Compound 11b] .
Output line: 18.7

Input line: Do the same for `Cc1nn2c(=O)c3c4c(sc3nc2[nH]1)CCC4` please
Output line: 0.0

Input line: One more compound: O=c1c2c3c(sc2nc2nc([C@@H](O)[C@@H](O)[C@H](O)[C@H](O)CO)[nH]n12)CCC3 [Compound 11c]
Output line: 20.6

Input line: For `O=c1c2c3c(sc2nc2[nH]c(=S)[nH]n12)CCC3` then?
Output line: 0.0

====

Below, each entry is listed with its recorded Percentage cytotoxicity on HCT-116.
- Tested on: human colorectal HCT-116 cancer cell line
- assay info: In vitro cytotoxic screening (MTT assay), HCT-116
- Format: cell-based
- condition set: 100 µM; average ± standard deviation
Kindly answer with a numeric value in %, unit omitted.

Input line: Notebook entry, human colorectal HCT-116 cancer cell line assay: Percentage cytotoxicity on HCT-116 of O=c1c2c3c(sc2nc2[nH]c(-c4ccc(Cl)cc4)nn12)CCC3 [Compound 10a] = ?
Output line: 20.3

Input line: Can you check O=c1c2c3c(sc2nc2nc([C@@H](O)[C@H](O)[C@H](O)CO)[nH]n12)CCC3 [Compound 11d] next?
Output line: 10.0

Input line: Then `CCOC(=O)Cc1nn2c(=O)c3c4c(sc3nc2[nH]1)CCC4` ?
Output line: 0.0

Input line: # iterate: O=c1c2c3c(sc2nc2[nH]c(-c4c5ccccc5cc5ccccc45)nn12)CCC3 [Compound 10e]
Output line: 86.7
